OUTCOME MEASURE: melting point

Record excerpt, results attached:
1) Cc1cc(N2CCN(Cc3ccccc3)C2=O)sc1C(=O)NCc1cccnc1 ... 130 to 131 °C
2) Clc1cncc(Cl)c1C1=NC(c2ccc(Br)cc2)CO1 (stereo unspecified) ... 102 to 103 °C
3) Cc1cc(OCc2ccc(-c3ccc(C(F)(F)F)cc3)nc2C)ccc1OC(C)(C)C(=O)O ... 164 to 165 °C

Please examine the following record next.
Recorded result, CC(C)(C)OC(=O)C[C@@H]1C[C@@H](COc2ccc(-c3ccc(C#N)c(F)c3)cc2)NC1=O , melting point: 142 to 144 °C
